Provide the recorded GI50 for the entries that follow.
test system: HL-60; experiment: NCI tumour cell line growth inhibition, 48 h
The source made the active and inactive calls. No stated cut-off is given here; in the data, active = GI50 up to about 1.1 µM and inactive = higher.

Input line: Requested read-out GI50, target or system HL-60, entry CN(C(=O)Cc1cc(Cl)c(Cl)cc1N=C=S)[C@H]1CCCC[C@@H]1N1CCCC1
Output line: 10.1 µM (inactive)

Input line: Another molecule to check: CC(OC(=O)NCn1cc(-c2ccccc2)nn1)c1ccccc1 (stereo not drawn)
Output line: 27.8 µM (inactive)

Input line: Another molecule to check: COC(=O)CNC(=O)CSc1nnc(COc2ccc(Cl)cc2)n1-c1ccccc1
Output line: 30.1 µM (inactive)

Input line: Another molecule to check: OCCN(CCO)c1ccc2c(c1)Cc1ccccc1-2
Output line: 41.7 µM (inactive)

Input line: Another molecule to check: COC(=O)C1=C(OC(=O)/C(=C/c2ccc(Cl)cc2)c2ccccc2)C(C(=O)OC)[C@@]2(O)[C@@H](C(=O)OC)[C@H](C)C[C@@H]1[C@@H]2C(=O)OC (stereo partly drawn)
Output line: > 100 µM (inactive)

Input line: Another molecule to check: COC(=O)C1CCC(N2C(=O)CCC2C(=O)OC)=N1 (stereo not drawn)
Output line: > 100 µM (inactive)

Input line: Another molecule to check: Clc1cc2ncn(C3CCCO3)c2cc1Cl (stereo not drawn)
Output line: 78.9 µM (inactive)

Input line: Another molecule to check: CC1(C)N[PH]2(Nc3ccccc3O2)OC1=O
Output line: 44.3 µM (inactive)

* * *

system: HOP-92; assay: NCI tumour cell line growth inhibition, 48 h
Activity calls are given as the source filed them. Cut-off read from the data, not from the text of the source: active = GI50 up to about 1.1 µM and inactive = higher.
PROPERTY NAME: GI50

Input line: Would you mind telling me what GI50 value was observed for CN(C)C(=S)NC(=S)Nc1ccc2ccccc2c1 ?
Output line: 17 µM (inactive)

Input line: Another molecule to check: O=C(O)C1=C(C(=O)O)Oc2ccccc2O1
Output line: > 100 µM (inactive)

Input line: Another molecule to check: COc1ccc(NC(=O)C2C(=O)N(c3ccc(OC)cc3)C(=O)/C2=N\NC(N)=O)cc1 (configuration not stated)
Output line: 31.3 µM (inactive)

Input line: Another molecule to check: COc1ccccc1N1C(=O)CSC1c1cccc(Oc2ccccc2)c1 (configuration not stated)
Output line: 12.7 µM (inactive)

Input line: Another molecule to check: O=C1COc2cccnc2N1CCCCO
Output line: > 100 µM (inactive)

Input line: Another molecule to check: CCCC(=O)OCC1OC(n2cc(F)c(=O)[nH]c2=O)C(F)C1O (configuration not stated)
Output line: > 100 µM (inactive)

Input line: Another molecule to check: COC1=C(N2CC2)C(=O)c2nc3n(c2C1=O)CCC3
Output line: 3.33 µM (inactive)

Input line: Another molecule to check: COC(=O)c1c(C(=O)OC)c2c3ccccc3n(C)c2c2c1c1ccccc1n2C
Output line: > 100 µM (inactive)

Input line: Another molecule to check: Cc1cc2c(C)cc(=O)[nH]c2cc1N
Output line: > 100 µM (inactive)

Input line: Another molecule to check: C/C(=N/NS(=O)(=O)c1ccc(C)cc1)c1cccc[n+]1[O-]
Output line: > 100 µM (inactive)

Input line: Another molecule to check: CN(C)c1n/c(=N/Cc2ccccn2)ss1
Output line: > 10 µM (inactive)

Input line: Another molecule to check: NCCN1C(=O)c2ccccc2C1(O)c1ccc(Cl)cc1 (configuration not stated)
Output line: 10.4 µM (inactive)

* * *

tested on: SNB-19; assay: NCI tumour cell line growth inhibition, 48 h
Calls of active or inactive are those of the source. Cut-off read from the data, not from the text of the source: active = GI50 up to about 1.1 µM and inactive = higher.
PROPERTY NAME: GI50

Input line: Would you mind telling me what GI50 value was observed for CN(C)Cc1cc(C(=O)/C=C/c2ccccc2)cc(CN(C)C)c1O ?
Output line: 29.1 µM (inactive)

Input line: Another compound to check: CC(=O)O[C@H]1CC[C@@]2(C)C(=CC[C@H]3[C@@H]4C/C(=C\c5ccc(N(C)C)cc5)[C@H](OC(C)=O)[C@@]4(C)CC[C@@H]32)C1
Output line: 13 µM (inactive)

Input line: Another compound to check: COc1cccc(N(CN2CC=CC2=O)C(C)=O)c1
Output line: > 100 µM (inactive)

Input line: Another compound to check: Cc1nc2ccc(S(=O)(=O)O)cc2c(=O)n1-c1ccc(C(=O)NN2C(=O)C(Cl)C2c2ccccc2O)cc1 (stereo not given)
Output line: > 100 µM (inactive)

Input line: Another compound to check: COc1ccc(NC(=O)C2C(=O)N(c3ccc(OC)cc3)C(=O)/C2=N\NC(N)=O)cc1 (stereo not given)
Output line: 41.1 µM (inactive)

* * *

test system: SNB-75; test: NCI tumour cell line growth inhibition, 48 h
The source made the active and inactive calls. Rule as the data show it: active = GI50 up to about 1.1 µM and inactive = higher.
Provide the recorded GI50 for the entries that follow.

Input line: Would you mind telling me what GI50 value was observed for COc1ccccc1NC(=S)N/N=C1\C(=O)Nc2ccccc21 ?
Output line: 58.9 µM (inactive)

Input line: Another compound to check: CCN(C(=O)N[C@@H](CC(C)C)C(=O)NCC(=O)OC)c1ccccc1
Output line: 72.9 µM (inactive)

Input line: Another compound to check: CC(=O)OCC1OC(n2c(-c3ccc(C)cc3)cc(-c3ccccc3)c(C#N)c2=O)C(OC(C)=O)C(OC(C)=O)C1OC(C)=O (stereo not given)
Output line: 71.6 µM (inactive)

Input line: Another compound to check: C[N+](C)=c1[nH]c2ccccc2[nH]1
Output line: 24.3 µM (inactive)

Input line: Another compound to check: COC(=O)c1ccc(Oc2nc3ccccc3nc2-c2cccs2)cc1
Output line: 7.83 µM (inactive)

Input line: Another compound to check: CC(C)c1ccc2nc3ccc(C(=O)NCCN(C)C)cn3c(=O)c2c1
Output line: 10.4 µM (inactive)

Input line: Another compound to check: COc1cc(/C=C2\N=C(c3ccccc3)N(/N=C/c3cc4cc(C)ccc4nc3Cl)C2=O)ccc1O
Output line: 32.7 µM (inactive)

Input line: Another compound to check: COc1ccc(NC(=O)C2C(=O)N(c3ccc(OC)cc3)C(=O)/C2=N\NC(N)=O)cc1 (stereo not given)
Output line: 20.6 µM (inactive)

Input line: Another compound to check: O=C(/C(=C\I)c1ccccc1)c1ccccc1
Output line: 9.42 µM (inactive)

Input line: Another compound to check: CSc1c(C#N)c(O)nc(N)c1C(=O)Nc1ccc(Cl)cc1
Output line: 37.8 µM (inactive)

* * *

tested on: NCI-H460; experiment: NCI tumour cell line growth inhibition, 48 h
The source made the active and inactive calls. Cut-off read from the data, not from the text of the source: active = GI50 up to about 1.1 µM and inactive = higher.
Outcome field: choose from 1 for active, 0 for inactive

Input line: # outcome recorded in this test, key = CCCCNC(=O)c1cc2c(cc1Cl)Sc1nccn1S2(=O)=O
Output line: 0

Input line: Another compound to check: O=C(CCN1CCCCC1)Nc1ccc2c(c1)C(=O)c1ccc(NC(=O)CCN3CCCCC3)cc1C2=O
Output line: 0

Input line: Another compound to check: Cc1nc(-n2nc(-c3ccccc3)cc2-c2ccccc2)sc1C(=O)/C=C/c1cccc([N+](=O)[O-])c1
Output line: 0

Input line: Another compound to check: CN(C)c1ccc(/C=C/c2ccc(/C=C/c3ccc(N(C)C)cc3)cc2)cc1
Output line: 0

Input line: Another compound to check: COc1nc(NC2OCC(OC(C)=O)C(OC(C)=O)C2OC(C)=O)c(/N=C(\C)C(C)=O)c(=O)n1C (stereo not drawn)
Output line: 0

Input line: Another compound to check: COC(=O)C[C@](O)(CCC(C)(C)O)C(=O)O[C@@H]1C(OC)=C[C@]23CCCN2CCc2cc4c(cc2[C@H]13)OCO4 [HARRINGTONINE]
Output line: 1

Input line: Another compound to check: CN(C)Cc1cc(C(=O)/C=C/c2ccccc2)cc(CN(C)C)c1O
Output line: 0

Input line: Another compound to check: CC(C)CCC1(O)O[C@H]2C[C@H]3[C@@H]4CCC5CC(=O)C=C[C@]5(C)[C@H]4CC[C@]3(C)[C@H]2[C@@H]1C (stereo partly drawn)
Output line: 0

* * *

test system: SF-539; assay: NCI tumour cell line growth inhibition, 48 h
The source made the active and inactive calls. Rule as the data show it: active = GI50 up to about 1.1 µM and inactive = higher.
Outcome field: choose from active, inactive

Input line: # outcome recorded in this test, key = CC(=O)NC1C(OCc2ccccc2)OC(CO)C(O)C1OCC(=O)NC(C)C(=O)NC(CCC(=O)NCCCCNc1ccc([N+](=O)[O-])c2[nH]c3ccccc3c(=O)c12)C(N)=O (configuration not stated)
Output line: inactive

Input line: Another molecule to check: NC(=S)N/N=C\c1nccc2ccccc12
Output line: active

Input line: Another molecule to check: C/C(Cl)=N/OC(=O)Nc1ccc(F)c([N+](=O)[O-])c1
Output line: inactive

Input line: Another molecule to check: O=c1c(Sc2c(SCSc3cnc4ccccc4c3Sc3c[nH]c4ccccc4c3=O)cnc3ccccc23)c[nH]c2ccccc12
Output line: inactive

Input line: Another molecule to check: O=C(COc1ccc(Br)cc1Br)N1N=C(c2ccc([N+](=O)[O-])o2)CC1(O)c1ccccc1 (configuration not stated)
Output line: inactive

Input line: Another molecule to check: CC(=O)c1ccc(N2C(=O)C3c4[nH]c5ccccc5c4C4CCC(C(C)(C)C)CC4C3C2=O)cc1 (configuration not stated)
Output line: inactive

Input line: Another molecule to check: CCC(C)C1=C(O)[N+]2([O-])Oc3ccc(-c4c(O)c(O)c(-c5ccc(OC(C)=O)cc5)c(OC(C)=O)c4OC(C)=O)cc3OC2(C(C)CC)C(=O)N1O (configuration not stated)
Output line: inactive

Input line: Another molecule to check: C[C@]12CC[C@H]3[C@@H](CCC4=CC(=O)CC[C@@]43C)[C@@H]1CC[C@@H]2OC(=O)c1cccc2c(=O)c3ccccc3[nH]c12
Output line: inactive

Input line: Another molecule to check: CC1c2c(Cl)nc3ccccc3c2Oc2c1c(Cl)nc1ccccc21
Output line: inactive

Input line: Another molecule to check: Cc1nc2nn(Cc3ccccc3)cc2c(=O)o1
Output line: inactive

Input line: Another molecule to check: CCn1c(=O)nc2n(-c3ccc(SC)cc3)c3ccccc3nc-2c1=O
Output line: inactive

Input line: Another molecule to check: O=[N+]([O-])c1cc([As](Br)c2ccc(O)c([N+](=O)[O-])c2)ccc1O
Output line: inactive

Input line: Another molecule to check: CN(C)c1ccc(/C=C2\CCCCCC2=O)cc1
Output line: inactive

Input line: Another molecule to check: O=C(/C(=C\I)c1ccccc1)c1ccccc1
Output line: inactive

Input line: Another molecule to check: Cc1ccc(NC(=O)C(=O)CC(=O)c2sc(Nc3c(C)cccc3C)nc2C)cc1C
Output line: inactive

Input line: Another molecule to check: O=C1CCCCCCCCCCC(=O)N2CCOCCOCCN1Cc1cccc(n1)C2
Output line: inactive

Input line: Another molecule to check: Cc1ccc(-c2cc(=O)c3cc(C)c(C)c(C(=O)O)c3o2)cc1C
Output line: inactive

Input line: Another molecule to check: CC1CC#CCOC(=O)CCCC1=O (configuration not stated)
Output line: inactive

Input line: Another molecule to check: COc1ccccc1/C=C\c1cnnc2ccccc12
Output line: inactive

Input line: Another molecule to check: Cc1cc2c(c(C(N)=O)c1C)-c1cccc(F)c1C2=O
Output line: inactive

Input line: Another molecule to check: C=CCN1CCC(OC(=O)C(O)(/C=C\CC)C2CCCC2)CC1 (configuration not stated)
Output line: inactive

Input line: Another molecule to check: CCCCC1NC=Nc2c1ccc1c2[nH]c2ccccc21 (configuration not stated)
Output line: inactive

Input line: Another molecule to check: CN(C)CCN(C)CCC(=O)/C=C/c1ccccc1
Output line: inactive

Input line: Another molecule to check: CN(CCS(=O)(=O)N1C(=O)C2CCCN2C(=O)[C@@H]1Cc1ccccc1)C(=O)OCc1ccccc1 (some centres not stated)
Output line: inactive

Input line: Another molecule to check: COC1CCC2C(NS(=O)(=O)c3ccc(C)cc3)CCCC2O1.Cc1ccc(S(=O)(=O)NC(C)(C)C=O)cc1 (configuration not stated)
Output line: inactive

Input line: Another molecule to check: CC(=O)c1ccc(NC(=O)C(=O)CC(=O)c2sc(-n3nc(-c4ccccc4)cc3-c3ccccc3)nc2C)cc1
Output line: inactive

Input line: Another molecule to check: c1ccc(C2=C(c3ccccc3)P(c3ccccc3)C2)cc1 (configuration not stated)
Output line: inactive

Input line: Another molecule to check: CC(=O)NNC(=O)C1CCCCN1 (configuration not stated)
Output line: inactive

Input line: Another molecule to check: CN(C)c1n/c(=N/Cc2ccccn2)ss1
Output line: inactive

Input line: Another molecule to check: CC(=O)OCC1OC(n2cnc3nc(Br)[nH]c(=O)c32)C(OC(C)=O)C1OC(C)=O (configuration not stated)
Output line: inactive

Input line: Another molecule to check: COc1ccc(-c2coc3c4c(ccc3c2=O)OCO4)cc1OC
Output line: inactive

Input line: Another molecule to check: COC(=O)CC(C#N)(OP1(=O)OC(c2ccccc2)C(C)N1C)c1ccccc1 (configuration not stated)
Output line: inactive

Input line: Another molecule to check: CN(C)C(=S)NC(=S)Nc1ccc2ccccc2c1
Output line: inactive

Input line: Another molecule to check: O=C1/C(=C/c2cccc(Br)c2)Cc2ccccc21
Output line: inactive

Input line: Another molecule to check: CC1C[C@@]2(c3ccccc3)C(=O)CCC[C@H]2N1 (some centres not stated)
Output line: inactive

Input line: Another molecule to check: CN(C)C(=O)Oc1c(-c2ccccc2)c(=O)n2c3ccccc3n3c(=O)n(C)c(=O)c1c23
Output line: inactive

Input line: Another molecule to check: CCN(C(=O)N[C@@H](CC(C)C)C(=O)NCC(=O)OC)c1ccccc1
Output line: inactive

Input line: Another molecule to check: Cc1ccc(C)c2c1C1CCCCC3(OCCCO3)C21O (configuration not stated)
Output line: inactive

Input line: Another molecule to check: CCN(CC)CCC(=O)c1ccc(Oc2ccc(F)cc2)cc1
Output line: inactive

Input line: Another molecule to check: CC1(C)C2=CCCC(=O)[C@@]2(C)CC[C@@H]1O
Output line: inactive

Input line: Another molecule to check: O=C(CN1CCCC1)Nc1ccc2sc3ccccc3c(=O)c2n1
Output line: inactive

Input line: Another molecule to check: Clc1cc2ncn(C3CCCO3)c2cc1Cl (configuration not stated)
Output line: inactive
